Recorded koff by entry
target: T1, HLA-A2/MAGE-A4p230-239 complex (human); experiment: SPR Biacore T200, antibody captured by anti-human Fc, pMHC complex as analyte, 25 C, 1:1 Langmuir fit
T1 construct: also called HLA-A2/MAGEp230-239
Give your result in s⁻¹ as a bare value.

// below: answered binders
| binder | quantitative-readout |
| --- | --- |
| Molecule K (antibody, V domains shown, also called 057D03 IgG antibody) VH: AQLVESGGGLVQPGGSLRLSCAASAYFSFKAMSWVRQAPGKGLEWVGSISPSGGSTYYNDNVLGRFTISRDNSKNTLYLQMNSLRAEDTAVYYCAKDVGFFDEWGQGTLVTVSS VL: DIQMTQSPSSLSASVGDRVTITCRASQSISSYLAWYQQKPGKAPKLLIYDASIRDIGVPSRFSGSGSGTDFTLTISSLQPEDFATYYCQQYSSYPYTFGQGTKLEIK | 0.0408 |
| Molecule H (antibody, V domains shown, also called 007A09 IgG antibody) VH: YVQLVESGGGLVKPGGSLRLSCAAPLPFTGLDMSWVRQAPGKGLEWVGSISPKGGSTYYNDNVLGRFTISRDNSKNTLYLQMNSLRAEDTAVYYCARDWGFFDLWGQGTLVTVSS VL: AIQMTQSPSSLSASVGDRVTITCRASQSISNYLAWYQQKPGKAPKLLIYDANAHENDVPSRFSGSGSGTDFTLTISSLQPEDFATYYCQQYSSHPYTFGQGTKLEIK | 0.00426 |
| Molecule J (antibody, V domains shown, also called 057B04 IgG antibody) VH: TQQLVESGGGLVQPGGSLRLSCAASGFSFSFDTMSWVRQAPGKGLEWVGSISPSGGSTYYNDNVLGRFTISRDNSKNTLYLQMNSLRAEDTAVYYCARDHGYFDMWGQGTLVTVSS VL: DIQMTQSPSSLSASVGDRVTITCRASQSISSYLAWYQQKPGKAPKLLIYDASWLELGVPSRFSGSGSGTDFTLTISSLQPEDFATYYCQQYSSYPYTFGQGTKLEIK | 0.043 |

Pending binder:
Prompt: Form field: reported koff of Molecule I (antibody, V domains shown, also called 007D10 IgG antibody) VH: YPQLVESGGGLVKPGGSLRLSCAARYPFTRLDMSWVRQAPGKGLEWVGSISPKGGSTYYNDNVLGRFTISRDNSKNTLYLQMNSLRAEDTAVYYCARDWGFFDNWGQGTLVTVSS VL: AIQMTQSPSSLSASVGDRVTITCRASQSISNYLAWYQQKPGKAPKLLIYNASHPEYDVPSRFSGSGSGTDFTLTISSLQPEDFATYYCQQYSSHPYTFGQGTKLEIK
Response: 0.00246
